target: human FPR1 (Homo sapiens, UniProt P21462); test: FPR1 cyclic adenosine monophosphate (cAMP) assay; type: cell-based; conditions: CHO cells overexpressing human FPR1; forskolin 10 μM; inhibition of cAMP production; HTRF; read-out: hFPR1 cAMP2 EC50
Sequence (P21462 whole entry): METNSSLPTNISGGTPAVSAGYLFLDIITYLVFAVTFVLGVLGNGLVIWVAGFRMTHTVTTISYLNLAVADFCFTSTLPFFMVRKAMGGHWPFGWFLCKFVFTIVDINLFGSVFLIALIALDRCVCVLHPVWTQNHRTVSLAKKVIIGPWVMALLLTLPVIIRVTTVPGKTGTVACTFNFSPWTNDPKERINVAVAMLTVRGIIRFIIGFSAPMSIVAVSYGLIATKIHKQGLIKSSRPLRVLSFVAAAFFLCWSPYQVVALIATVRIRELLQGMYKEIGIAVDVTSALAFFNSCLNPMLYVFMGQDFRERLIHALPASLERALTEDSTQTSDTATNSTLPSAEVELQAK
pEC50: −log10 of the molar value.
endpoint.name: pEC50

Use the examples below as a reference point.
>>> measured_value("COc1cc(F)c(-n2cc(-c3ccc(C)cc3)nc2NC(=O)c2ccc(OC(F)F)cc2)c(F)c1")
6.89
>>> measured_value("COc1ccc(-n2cc(-c3ccccn3)nc2NC(=O)c2ccc(OC(F)F)cc2)cc1")
5.99
>>> measured_value("COc1cc(F)c(-n2cc(C(=O)N3CCC(CO)C3)nc2NC(=O)c2ccc(OC(F)F)cc2)c(F)c1 (stereo not shown)")
5.66
>>> measured_value("COc1cc(F)c(-n2cc(-c3ccc(F)cc3)nc2NC(=O)c2ccc(OC(F)F)cc2)c(F)c1")
6.40

I: COc1cc(F)c(-n2cc(C(=O)NCc3cccnc3)nc2NC(=O)c2ccc(OC(F)F)cc2)c(F)c1
II: COc1cc(F)c(-n2cc(-c3ccccc3F)nc2NC(=O)c2ccc(OC(F)F)cc2)c(F)c1
III: COc1cc(F)c(-n2cc(-c3ccc(OC(F)F)cc3)nc2NC(=O)c2ccc(OC(F)F)cc2)c(F)c1
Qu. Give the ascending ranking of the items by reported pEC50. Please respond with the labels ordered as the question requires.
Ans. II, III, I
(II: 6.03, III: 6.72, I: 6.96)

a: COc1ccc(-n2cc(-c3nccs3)nc2NC(=O)c2ccc(OC(F)F)cc2)cc1
b: COc1cc(F)c(-n2cc(CC(C)C)nc2NC(=O)c2ccc(OC(F)F)cc2)c(F)c1
Qu. Higher pEC50 between a and b ? Write the label of whichever entry you select.
Ans. a

1: COc1cc(F)c(-n2cc(-c3ccccc3)nc2NC(=O)c2ccc(OC(F)F)cc2)c(F)c1
2: COc1cc(F)c(-n2cc(C(=O)NCc3cc[nH]n3)nc2NC(=O)c2ccc(OC(F)F)cc2)c(F)c1
Qu. Higher pEC50 between 1 and 2 ? Write the label of whichever entry you select.
Ans. 1

A: COc1ccc(-n2cc(-c3ccc4c(c3)CCO4)nc2NC(=O)c2ccc(OC(F)F)cc2)cc1
B: COc1cc(F)c(-n2cc(-c3nccs3)nc2NC(=O)c2ccc(OC(F)F)cc2)c(F)c1
C: COc1cc(F)c(-n2cc(C(=O)NCCO)nc2NC(=O)c2ccc(OC(F)F)cc2)c(F)c1
Qu. Give the ascending ranking of the items by reported pEC50. Please respond with the labels ordered as the question requires.
Ans. C, B, A

1: CCOC(=O)c1cn(-c2ccc(OC)cc2)c(NC(=O)c2ccc(OC(F)F)cc2)n1
2: COc1cc(F)c(-n2cc(C3CC3)nc2NC(=O)c2ccc(OC(F)F)cc2)c(F)c1
Qu. Higher pEC50 between 1 and 2 ? Write the label of whichever entry you select.
Ans. 1

I: COc1cc(F)c(-n2cc(-c3cccc(Cl)c3)nc2NC(=O)c2ccc(OC(F)F)cc2)c(F)c1
II: CCc1cn(-c2c(F)cc(OC)cc2F)c(NC(=O)c2ccc(OC(F)F)cc2)n1
III: COc1cc(F)c(-n2cc(C(=O)N3CCC(CO)CC3)nc2NC(=O)c2ccc(OC(F)F)cc2)c(F)c1
Qu. List from greatest to least pEC50. Please respond with the labels ordered as the question requires.
Ans. I, II, III

I: COc1cc(F)c(-n2cc(C3CCC(O)CC3)nc2NC(=O)c2ccc(OC(F)F)cc2)c(F)c1 (stereo not shown)
II: COc1cc(F)c(-n2cc(C(=O)NC3CCC(O)CC3)nc2NC(=O)c2ccc(OC(F)F)cc2)c(F)c1 (stereo not shown)
Qu. Lowest pEC50? choose I or II Write the label of whichever entry you select.
Ans. II

A: COc1cc(F)c(-n2cc(Cc3ccccn3)nc2NC(=O)c2ccc(OC(F)F)cc2)c(F)c1
B: COc1cc(F)c(-n2cc(C(=O)NCc3cnc(C)cn3)nc2NC(=O)c2ccc(OC(F)F)cc2)c(F)c1
Qu. Higher pEC50 between A and B ? Write the label of whichever entry you select.
Ans. B
(B: 6.96, A: 6.06)

----------
target: human FPR1 (Homo sapiens, UniProt P21462); experiment: FPR1 cyclic adenosine monophosphate (cAMP) assay; settings: CHO cells overexpressing human FPR1; forskolin 10 μM; inhibition of cAMP production; HTRF; read-out: hFPR1 cAMP2 EC50
endpoint.name: EC50 (nM)

Use the examples below as a reference point.
>>> measured_value("COc1cc(F)c(-n2cc(C3CCOCC3)nc2NC(=O)c2ccc(OC(F)F)cc2)c(F)c1")
230
>>> measured_value("CCOC(=O)Cc1cn(-c2c(F)cc(OC)cc2F)c(NC(=O)c2ccc(OC(F)F)cc2)n1")
470

a: COc1ccc(-n2cc(-c3ccccc3)nc2NC(=O)c2ccc(OC(F)F)cc2)cc1
b: COc1cc(F)c(-n2cc(C(=O)N3CCCC(O)C3)nc2NC(=O)c2ccc(OC(F)F)cc2)c(F)c1 (stereo not drawn)
c: COc1cc(F)c(-n2cc(C3CCNCC3)nc2NC(=O)c2ccc(OC(F)F)cc2)c(F)c1
d: COc1cc(F)c(-n2cc(-c3ccc(C(F)(F)F)cc3)nc2NC(=O)c2ccc(OC(F)F)cc2)c(F)c1
e: COc1ccc(-n2cc(-c3ccc(F)cc3F)nc2NC(=O)c2ccc(OC(F)F)cc2)cc1
Qu. Give the ascending ranking of the items by reported EC50. Please respond with the labels ordered as the question requires.
Ans. a, e, d, c, b
(a: 38 nM, e: 76 nM, d: 120 nM, c: 710 nM, b: 2900 nM)

I: COc1cc(F)c(-n2cc(C(=O)NCc3ccncc3)nc2NC(=O)c2ccc(OC(F)F)cc2)c(F)c1
II: COc1ccc(-n2cc(-c3cc4cc(Cl)ccc4o3)nc2NC(=O)c2ccc(OC(F)F)cc2)cc1
Qu. Higher EC50 between I and II ? Write the label of whichever entry you select.
Ans. I
(I: 600 nM, II: 400 nM)

----------
molecular target: human FPR2 (Homo sapiens, UniProt P25090); assay: FPR2 cyclic adenosine monophosphate (cAMP) assay; conditions: CHO cells overexpressing human FPR2; forskolin 5 μM; inhibition of cAMP production; HTRF; read-out: hFPR2 cAMP2 EC50
Sequence (P25090 whole entry): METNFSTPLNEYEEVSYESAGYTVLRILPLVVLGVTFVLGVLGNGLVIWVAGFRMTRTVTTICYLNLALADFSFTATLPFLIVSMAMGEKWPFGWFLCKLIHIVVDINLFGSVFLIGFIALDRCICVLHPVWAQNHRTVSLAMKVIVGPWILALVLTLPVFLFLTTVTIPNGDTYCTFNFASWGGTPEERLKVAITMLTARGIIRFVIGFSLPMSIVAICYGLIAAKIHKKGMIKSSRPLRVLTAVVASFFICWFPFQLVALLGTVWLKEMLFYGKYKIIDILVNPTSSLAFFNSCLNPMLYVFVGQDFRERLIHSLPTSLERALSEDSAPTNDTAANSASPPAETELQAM
endpoint.name: EC50 (nM)

Use the examples below as a reference point.
>>> measured_value("COc1cc(F)c(-n2cc(-c3ccc4ccccc4c3)nc2NC(=O)c2ccc(OC(F)F)cc2)c(F)c1 [Example 9]")
220
>>> measured_value("COc1ccc(-n2cc(-c3ccc4sccc4c3)nc2NC(=O)c2ccc(OC(F)F)cc2)cc1 [Example 22]")
86
>>> measured_value("COc1cc(F)c(-n2cc(C(=O)N3CCC(O)CC3)nc2NC(=O)c2ccc(OC(F)F)cc2)c(F)c1 [Example 52]")
63

A: COc1cc(F)c(-n2cc(C(=O)N3CCN(C)CC3)nc2NC(=O)c2ccc(OC(F)F)cc2)c(F)c1 [Example 55]
B: COc1cc(F)c(-n2cc(C(=O)NCc3cc[nH]n3)nc2NC(=O)c2ccc(OC(F)F)cc2)c(F)c1 [Example 44]
C: CCNC(=O)N1CCC(c2cn(-c3c(F)cc(OC)cc3F)c(NC(=O)c3ccc(OC(F)F)cc3)n2)CC1 [Example 66]
D: COc1ccc(-n2cc(C(F)(F)F)nc2NC(=O)c2ccc(OC(F)F)cc2)cc1 [Example 43]
Qu. Give the ascending ranking of the items by reported EC50. Please respond with the labels ordered as the question requires.
Ans. D, C, B, A

----------
target: human FPR2 (Homo sapiens); test: FPR2 cyclic adenosine monophosphate (cAMP) assay; details: CHO cells overexpressing human FPR2; forskolin 5 μM; inhibition of cAMP production; HTRF; read-out: hFPR2 cAMP2 EC50
pEC50: −log10 of the molar value.
endpoint.name: pEC50

Use the examples below as a reference point.
>>> measured_value("COc1cc(F)c(-n2c(NC(=O)c3ccc(OC(F)F)cc3)nc(-c3ccccc3)c2C)c(F)c1")
8.10
>>> measured_value("COc1cccc(-c2cn(-c3c(F)cc(OC)cc3F)c(NC(=O)c3ccc(OC(F)F)cc3)n2)c1")
8.10
>>> measured_value("COc1cc(F)c(-n2cc(-c3ccc(Cl)c(Cl)c3)nc2NC(=O)c2ccc(OC(F)F)cc2)c(F)c1")
7.29
>>> measured_value("COc1cc(F)c(-n2cc(C3CC(N)C3)nc2NC(=O)c2ccc(OC(F)F)cc2)c(F)c1 (stereo not drawn)")
8.40
>>> measured_value("COc1cc(F)c(-n2cc(Cc3ccccn3)nc2NC(=O)c2ccc(OC(F)F)cc2)c(F)c1")
7.25

A: COc1ccc(-n2cc(C(=O)N3CCNCC3)nc2NC(=O)c2ccc(OC(F)F)cc2)cc1
B: COc1cc(F)c(-n2cc(C(=O)NCc3cnc(C)cn3)nc2NC(=O)c2ccc(OC(F)F)cc2)c(F)c1
Qu. Lowest pEC50? choose A or B Write the label of whichever entry you select.
Ans. B

P: COc1cc(F)c(-n2cc(C(=O)N3CCCC(O)C3)nc2NC(=O)c2ccc(OC(F)F)cc2)c(F)c1 (stereo not drawn)
Q: COc1cc(F)c(-n2cc(C(=O)N3CCNC(=O)C3)nc2NC(=O)c2ccc(OC(F)F)cc2)c(F)c1
R: COc1ccc(-n2cc(-c3ccnc(Cl)c3)nc2NC(=O)c2ccc(OC(F)F)cc2)cc1
S: COc1cc(F)c(-n2cc(C3CC(NCC(F)(F)F)C3)nc2NC(=O)c2ccc(OC(F)F)cc2)c(F)c1 (stereo not drawn)
Qu. Give the ascending ranking of the items by reported pEC50. Please respond with the labels ordered as the question requires.
Ans. Q, P, S, R
(Q: 6.77, P: 7.08, S: 8.00, R: 8.30)

1: COc1cc(F)c(-n2cc(CC(C)C)nc2NC(=O)c2ccc(OC(F)F)cc2)c(F)c1
2: COc1ccc(-n2cc(C3CCCCC3)nc2NC(=O)c2ccc(OC(F)F)cc2)cc1
Qu. Higher pEC50 between 1 and 2 ? Write the label of whichever entry you select.
Ans. 2

a: COc1cc(F)c(-n2cc(C(=O)NCCCO)nc2NC(=O)c2ccc(OC(F)F)cc2)c(F)c1
b: CCOC(=O)c1cn(-c2c(F)cc(OC)cc2F)c(NC(=O)c2ccc(OC(F)F)cc2)n1
Qu. Higher pEC50 between a and b ? Write the label of whichever entry you select.
Ans. b
(b: 7.82, a: 7.25)
